B1: library; numbered along this chain (parent)
chain: MAAAAAAAAEQQSSNGPVKKSMREKAVERRSVNKEHNSNFKAGYIPIDEDRLHKTGLRGRKGNLAICVIILLFILAVINLIITLVIWAVIRIGPNGCDSMEFHESGLLRFKQVSDMGVIHPLYKSTVGGRRNENLVITGNNQPIVFQQGTTKLSVENNKTSITSDIGMQFFDPRTQNILFSTDYETHEFHLPSGVKSLNVQKASTERITSNATSDLNIKVDGRAIVRGNEGVFIMGKTIEFHMGGNMELKAENSIILNGSVMVSTTRLPSSSSGDQLGSGDWVRYKLCMCADGTLFKVQVTSQNMGCQISDNPCGNTH

# Variants of: B1
# assayProtocol: SGCB cell-surface expression functional score (HA stain, bin4 vs bin1, normalised to synonymous) (log10 ratio); higher = more cell-surface SGCB (functional)
Measured SGCB cell-surface expression functional score (log10) of individual entries

See these solved cases before continuing.
D98G = -0.2
G259S = 0.28
N95Y = 0.15

Next variant, please.
Q) SGCB cell-surface expression functional score (log10) for `V298D` ?
A) -0.58
